pKi: −log10 of the molar value.
Study the reported pKi values for Muscarinic acetylcholine receptor M5 (Homo sapiens, UniProt P08912) given below; they originate from different publications.
Label NOT MET if pKi falls below 6; label MET in every other case.

The examples below pair each entry with its known result.
1) OC(CCCN1CCN(c2ccccc2)CC1)(c1ccccc1)c1ccccc1: NOT MET
2) CN1CCC(OC(=O)N(c2ccccc2)c2ccccc2)CC1: MET
3) C[N+]1(CC#CCOC2=NOCC2)CCc2ccccc2C1 (configuration not stated): NOT MET
4) CC(C1=C(CCCN(C)C)Cc2ccccc21)c1ccccn1 (configuration not stated): NOT MET
5) COc1ccccc1N1CCC(C(=O)Nc2ccc(OC)c(N3CCN(C)CC3)c2)CC1: NOT MET
6) C[N+](C)(C)CCCCCC[N+](C)(C)CC#CCOC1=NOCC1: NOT MET

Incoming: Does C[N+]1(C)CCC[C@@H]1[C@@H]1C[S+]([O-])[C@](c2ccccc2)(C2CCCCC2)O1.[I-] (stereo in doubt; (-)-13) have a reported pKi of at least 6?
Outgoing: MET

Incoming: Is it the case that COc1ccc(NC(=O)N2CCN(c3ccc(Cl)cc3)CC2)cc1N1CCN(C)CC1 has pKi reaching or exceeding 6?
Outgoing: NOT MET

Incoming: Could you tell me if the measured pKi of CCOC(=O)[C@@]12C[C@@H]1[C@@H](n1cnc3c(NC)nc(C#Cc4ccc(Cl)s4)cc31)[C@H](O)[C@@H]2O reaches 6 or more?
Outgoing: NOT MET

Incoming: Textbook exercise: given the entry O=C(NC[C@@H]1CCCNC1)[C@H]1CCCN1C(=O)[C@@H]1C[C@@H](O)CN1C(=O)CC(c1ccccc1)(c1ccccc1)c1ccccc1 , state whether its pKi is greater than or equal to 6.
Outgoing: NOT MET

Incoming: Please indicate if the recorded pKi for CC1(C)C(/C=C/C=C/C=C2/N(CCCCS(=O)(=O)O)c3ccccc3C2(C)C)=[N+](CCCCCC(=O)NCCCCCCCCN2CCC(OC(=O)Nc3ccc(F)cc3-c3ccc(F)c(Cl)c3)CC2)c2ccc(S(=O)(=O)[O-])cc21 meets or exceeds 6.
Outgoing: MET
